Origin of values: ChEMBL document CHEMBL1156106

- System: Rattus norvegicus
- Assay Overview: Effect on behavioural activity in rat assessed as cocaine-induced lever response at 5 mg/kg, po pretreated with cocaine for 180 mins by drug-discrimination studies
- Assay type: functional
In this section we review reported Activity values for a set of molecules.
Your answer should be a plain number; it is taken to be in %.

Molecule	Obs Value
CC(C(=O)c1cccc(Cl)c1)N(C)C (configuration not stated)	0
CC(NC(C)(C)C)C(=O)c1cccc(Cl)c1 (configuration not stated)	2.5
CC(NC(C)(C)C)C(=O)c1cccc(F)c1 (configuration not stated)	0

Problem: Item under review: CC(NC(C)(C)C)C(=O)c1ccccc1 (configuration not stated) . Reported Activity?
Solution: 33

Problem: Next record, please: CCCC(NC(C)(C)C)C(=O)c1ccc(Cl)c(Cl)c1 (configuration not stated)
Solution: 0

Problem: Next record, please: CC(NC(C)(C)C)C(=O)c1cccc(Br)c1 (configuration not stated)
Solution: 0

Problem: Next record, please: CCCC(NC(C)(C)C)C(=O)c1cccc(Cl)c1 (configuration not stated)
Solution: 22
